Substrate: PET
Test description: Proxy for plastic degradation [Released monomer concentration (HPLC/LC-MS) (MHET+TPA)]
Applied conditions: pH 7.5; 40 °C; part of the chain shown
Here, each record is paired with measured Proxy for plastic degradation data.
Provide the reading as a plain figure in mM.

Some proteins with recorded Proxy for plastic degradation:
What value of measured Proxy for plastic degradation is listed for unnamed (protein) QTNPYARGPNPTAASLEASAGPFTVRSFTVSRPSGYGAGTVYYPTNAGGTVGAIAIVPGYTARQSSIKWWGPRLASHGFVVITIDTNSTLDQPESRSSQQMAALRQVASLNGTSSSPIYGKVDTARMGVMGWSMGGGGSLISAANNPSLKAAAPQAPWHSSTNFSSVTVPTLIFACENDSIAPVNSSALPIYDSMSRNAKQFLEINGGSHSCANSGNSNQALIGKKGVAWMKRFMDNDTRYSTFACENPNSTAVSDFRTANCSLEHHHHHH ?
12

So what's the measured Proxy for plastic degradation for this one? unnamed (protein) QTNPYARGPNPTAASLEASAGPFTVRSFTVSRPSGYGAGTVYYPTNAGGTVGAIAIVPGYTARQSSIKWWGPRLASHGFVVITIDTNSTLDQPSSRSSQQMAALRQVASLNGTSSSPIYGKVDTARMGVMGWSMGGGGSLISAANNPSLKAAAPQAPWDSSTNFSSVTVPTLIFACENDSIAPVNSSALPIYDSMSRNAKQFLEINGGSHSCANSGNSNQALIGKKGVAWMKRFMDNDTRYSTFACENPNSTRVSDFRTANCSLEHHHHHH
0

Could you tell me which Proxy for plastic degradation is on file for unnamed (protein) QTNPYARGPNPTAASLEASAGPFTVRSFTVSRPSGYGAGTVYYPTNAGGTVGAIAIVPGYTARQSSIKWWGPRLASHGFVVITIDTNSTLDQPESRSSQQMAALRQVASLNGTSSSPIYGKVDTARMGVMGWSMGGGGSLISAANNPSLKAAAPQAPWHSSTNFSSVTVPTLIFACENDSIAPVNSSALPIYDSMSQNAKQFLEIKGGSHSCANSGNSNQALIGKKGVAWMKRFMDNDTRYSTFACENPNSTAVSDFRTANCSLEHHHHHH ?
19

As a next step, examine the protein that follows.
Need Proxy for plastic degradation, item unnamed (protein) QTNPYARGPNPTAASLEASAGPFTVRSFTVSRPSGYGAGTVYYPTNAGGTVGAIAIVPGYTARQSSIKWWGPRLASHGFVVITIDTNSTFDYPSSRSSQQMAALRQVASLNGDSSSPIYGKVDTARMGVMGHSMGGGASLRSAANNPSLKAAIPQAPWDSQTNFSSVTVPTLIFACENDSIAPVNSHALPIYDSMSRNAKQFLEINGGSHSCANSGNSNQALIGKKGVAWMKRFMDNDTRYSTFACENPNSTAVSDFRTANCSLEHHHHHH
1

// data source = the PETadex activity labels (doi:10.1038/s41586-022-04599-z)
